System: CEM-SS cells
Assay: Cytotoxicity on uninfected cells, MTT assay
Format: cell-based
Details: mean ± SD, four independent experiments
measured_parameter: CC50 (µM)
Give bare numbers, in µM.

Ask | Return reported CC50; argument: CC(C)Nc1nc2c(N)ncnc2n1[C@H]1C[C@H](O)[C@@H](CO)O1
Reply | 81.3
